- TEST: in vitro
- SETUP CONDITIONS: cat
ATTRIBUTE MEASURED: CC50

{"columns": ["COMPOUND", "VALUE OBSERVED"],
 "data": [
  ["CC(C)C[C@H](NC(=O)OCC1CN(C(=O)Cc2ccccc2)C1)C(=O)N[C@@H](C[C@H]1CCNC1=O)C(O)S(=O)(=O)O (stereo partly drawn) [Compound 15c]", "> 100 µM"],
  ["[2H]C([2H])(OC(=O)N[C@@H](CC(C)C)C(=O)N[C@H](C=O)C[C@H]1CCNC1=O)C1CN(C(=O)OC(C)(C)C)C1 [Compound 18b]", "> 100 µM"],
  ["CC(C)C[C@H](NC(=O)OC1(C)CN(C(=O)OC(C)(C)C)C1)C(=O)N[C@@H](C[C@H]1CCNC1=O)C(O)S(=O)(=O)O (stereo partly drawn) [Compound 13c]", "> 100 µM"],
  ["CC(C)C[C@H](NC(=O)OC1CC2(CCN(C(=O)Cc3ccccc3)CC2)C1)C(=O)N[C@H](C=O)C[C@H]1CCNC1=O [Compound 9b]", "> 100 µM"],
  ["CC(C)C[C@H](NC(=O)OC1CC2(CCN(C(=O)Cc3ccccc3)CC2)C1)C(=O)N[C@@H](C[C@H]1CCNC1=O)C(O)S(=O)(=O)O (stereo partly drawn) [Compound 9c]", "> 100 µM"]
]}

// switching to the query compound
Q: Given CC(C)C[C@H](NC(=O)OC1CN(C(=O)OC(C)(C)C)C1)C(=O)N[C@@H](C[C@H]1CCNC1=O)C(O)S(=O)(=O)O (stereo partly drawn) [Compound 12c] , state its recorded CC50.
Ans: > 100 µM

Entry source: paper PMC9172056
